protocol: Binding affinity towards Opioid receptor delta 1 was determined in guinea pig whole brain using [3H][4''-Cl-Phe4]-DPDPE as radioligand
measurement type: IC50 (nM)
One number for each entry, in nM.

Consider the reported IC50 for these compounds:
>  <substance smiles>
CCCC[C@@H](C(=O)N[C@@H](CC(=O)O)C(=O)N[C@@H](Cc1ccccc1)C(N)=O)N(C)C(=O)[C@H](Cc1c[nH]c2ccccc12)NC(=O)CNC(=O)[C@@H](Cc1ccccc1)NC(=O)[C@H](Cc1ccc(O)cc1)NC(=O)[C@@H](N)CC(=O)O

>  <IC50 / nM>
29

$$$$
>  <substance smiles>
CCCC[C@@H](C(=O)N[C@@H](CC(=O)O)C(=O)N[C@@H](Cc1ccccc1)C(N)=O)N(C)C(=O)[C@@H](NC(=O)CNC(=O)[C@@H](Cc1ccccc1)NC(=O)[C@H](Cc1ccc(O)cc1)NC(=O)[C@@H](N)CC(=O)O)[C@@H](C)c1c[nH]c2ccccc12

>  <IC50 / nM>
140

$$$$

Below is a list of compounds. For each, state its recorded IC50.
1. CCCC[C@@H](C(=O)N[C@@H](CC(=O)O)C(=O)N[C@@H](Cc1ccccc1)C(N)=O)N(C)C(=O)[C@H](NC(=O)CNC(=O)[C@@H](Cc1ccccc1)NC(=O)[C@H](Cc1ccc(O)cc1)NC(=O)[C@@H](N)CC(=O)O)[C@H](C)c1c[nH]c2ccccc12
2. CCCC[C@@H](C(=O)N[C@@H](CC(=O)O)C(=O)N[C@@H](Cc1ccccc1)C(N)=O)N(C)C(=O)[C@H](NC(=O)CNC(=O)[C@@H](Cc1ccccc1)NC(=O)[C@H](Cc1ccc(O)cc1)NC(=O)[C@@H](N)CC(=O)O)[C@@H](C)c1c[nH]c2ccccc12

Found:
820
1050
